Biological target: HCV NS5B polymerase (NS5BΔCT21, from HCV-Con 1 isolate, genotype 1b) (Hepatitis C virus genotype 1b, UniProt Q9WMX2)
Construct: A soluble C-terminal 21-amino acid truncated NS5B enzyme form; polyhistidine (C); made in house; host or cells: Escherichia coli
Test: HCV NS5B Polymerase Inhibition Assay
Type: biochemical
Settings: NS5B polymerase inhibition, [33P]-CTP incorporation, 22° C. for 2 hours; read-out: IC50
pIC50: −log10 of the molar value.
measured.quantity: pIC50

Solved cases (4 shown):
compound: NC(=O)c1cnc(F)c(Cn2c(C(=O)O)c(-c3ccc[nH]c3=O)c3c4occc4c(F)cc32)c1 [Compound 109]
pIC50: > 7.60
--
compound: CS(=O)(=O)NC(=O)c1c(-c2ccc[nH]c2=O)c2c3occc3c(F)cc2n1Cc1cc([N+](=O)[O-])ccc1F [Compound 179]
pIC50: > 7.60
--
compound: O=C(O)c1c(-c2ccccc2F)c2c3occc3c(F)cc2n1Cc1cc2ccccc2nc1Cl [Compound 128]
pIC50: < 7.00
--
compound: NC(=O)c1cc(Cn2c(C(=O)O)c(-c3ccc[nH]c3=O)c3c4occc4c(F)cc32)cs1 [Compound 97]
pIC50: > 7.60

Problem: State, in one line, measured pIC50 of CC(C)(C)OC(=O)N(C(=O)OC(C)(C)C)c1cc(Cn2c(C(=O)NS(=O)(=O)C3CC3)c(-c3ccc[nH]c3=O)c3c4occc4c(F)cc32)c(F)cn1 [Compound 227]
Solution: < 7.00

Problem: Give pIC50 for the following compound: Cc1cccc(Cn2c(C(=O)NS(C)(=O)=O)c(-c3ccc[nH]c3=O)c3c4occc4c(F)cc32)c1F [Compound 146]
Solution: > 7.60

Problem: Annotate the compound COC(=O)c1ccc(F)c(Cn2c(C(=O)NS(=O)(=O)C3CC3)c(-c3ccc[nH]c3=O)c3c4occc4ccc32)c1 [Compound 192] with its measured pIC50.
Solution: > 7.60

Problem: Specify measured pIC50 for NC(=O)c1cc(Cn2c(C(=O)NS(=O)(=O)C3CC3)c(-c3ccc[nH]c3=O)c3c4occc4c(F)cc32)cs1 [Compound 183] .
Solution: > 7.60

Problem: Identify measured pIC50 associated with CCS(=O)(=O)NC(=O)c1c(-c2ccc[nH]c2=O)c2c3occc3ccc2n1Cc1ccccc1F [Compound 68]
Solution: > 7.60

Problem: Provide pIC50 value for the following compound: Nc1ccccc1S(=O)(=O)NC(=O)c1c(-c2ccc[nH]c2=O)c2c3occc3c(F)cc2n1Cc1ccccc1F [Compound 202]
Solution: > 7.60

Problem: Provide measured pIC50 value, entry: O=C(O)c1c(-c2ccc[nH]c2=O)c2c3sccc3ccc2n1Cc1cc(F)ccc1F [Compound 33]
Solution: 7.00 to 7.60

Problem: Given CSc1ccc2cc(Cn3c(C(=O)O)c(-c4ccc[nH]c4=O)c4c5occc5c(F)cc43)c(Cl)nc2c1 [Compound 168] , respond with its pIC50.
Solution: > 7.60

Problem: Look up pIC50 of C[C@@H]1COc2c1ccc1c2c(-c2ccc[nH]c2=O)c(C(=O)NS(=O)(=O)C2CC2)n1Cc1cc(F)ccc1F [Compound 173] and report it.
Solution: > 7.60

Problem: Query pIC50 for Nc1cc(Cn2c(C(=O)O)c(-c3ccc[nH]c3=O)c3c4ncsc4ccc32)ccn1 [Compound 14]
Solution: > 7.60

Problem: Return pIC50 (reported value) for this compound: CS(=O)(=O)NC(=O)c1c(-c2ccc[nH]c2=O)c2c3occc3c(F)cc2n1Cc1ccc2onc(N)c2c1 [Compound 170]
Solution: > 7.60

Values were extracted from patent US8557848B2.
